biological target: human recombinant dopamine D2 receptor (Homo sapiens (Human)); test: Test of binding inhibition for dopamine D2 receptor ([3H]-Methylspiperone SPA); settings: Jump-In HEK cell membranes, 1.2 nM [3H]-Methylspiperone, 120 min at 25° C.; read-out: hD2_Ki
Sequence (P14416 whole entry): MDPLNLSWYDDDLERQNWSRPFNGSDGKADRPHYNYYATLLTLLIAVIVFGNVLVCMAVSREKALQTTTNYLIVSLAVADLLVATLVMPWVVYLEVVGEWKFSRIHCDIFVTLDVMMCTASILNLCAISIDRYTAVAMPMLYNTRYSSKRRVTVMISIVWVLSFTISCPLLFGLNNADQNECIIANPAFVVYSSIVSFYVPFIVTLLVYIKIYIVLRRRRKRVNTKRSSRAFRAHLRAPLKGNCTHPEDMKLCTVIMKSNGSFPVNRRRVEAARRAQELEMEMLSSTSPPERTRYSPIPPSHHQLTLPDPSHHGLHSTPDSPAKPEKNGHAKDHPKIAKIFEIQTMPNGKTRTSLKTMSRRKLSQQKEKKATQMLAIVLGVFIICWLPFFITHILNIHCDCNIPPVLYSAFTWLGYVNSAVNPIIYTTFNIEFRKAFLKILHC
Known pKi of a selection of molecules
Scale explanation: pKi corresponds to minus log10 of a concentration expressed in moles per litre.

[[record]]
chem_smiles = "Cc1ncc(CC(=O)N[C@H]2CC[C@](F)(CCN3CCc4nc(OCC(C)(F)F)sc4CC3)CC2)o1"
attribute_measured = "pKi"
measured_number = 6.01

[[record]]
chem_smiles = "Cc1ncc(CC(=O)N[C@H]2CC[C@](F)(CCN3CCc4ccc(OCC(F)F)nc4CC3)CC2)o1"
attribute_measured = "pKi"
measured_number = 5.96

[[record]]
chem_smiles = "COc1cc(CC(=O)N[C@H]2CC[C@H](CCN3CCc4nc(OCC(C)(F)F)sc4CC3)OC2)on1"
attribute_measured = "pKi"
measured_number = 6.03


Problem: Which measured pKi value corresponds to `Cc1nc(CC(=O)N[C@H]2CC[C@H](CCN3CCc4sc(C5CC(F)(F)C5)nc4C3)CC2)no1` ?
Solution: 6.11

Problem: Can you handle `Cn1cc2c(C(=O)NN3CCC(CCN4CCc5sc(OCC(F)(F)F)nc5C4)CC3)ccc(F)c2n1` next?
Solution: 6.19

Problem: Can you handle `Cc1ncc(OCC(=O)N[C@H]2CC[C@H](CCN3CCc4ccc(O[C@H](C)C(F)(F)F)nc4CC3)CC2)cn1` next?
Solution: 6.39

====

molecular target: human recombinant dopamine D3 receptor (Homo sapiens (Human), UniProt P35462); test: Test of binding inhibition for dopamine D3 receptor ([3H]-Methylspiperone SPA); conditions: Jump-In HEK cell membranes, 2 nM [3H]-Methylspiperone, 120 min at 25° C.; read-out: hD3_Ki
Sequence (P35462 whole entry): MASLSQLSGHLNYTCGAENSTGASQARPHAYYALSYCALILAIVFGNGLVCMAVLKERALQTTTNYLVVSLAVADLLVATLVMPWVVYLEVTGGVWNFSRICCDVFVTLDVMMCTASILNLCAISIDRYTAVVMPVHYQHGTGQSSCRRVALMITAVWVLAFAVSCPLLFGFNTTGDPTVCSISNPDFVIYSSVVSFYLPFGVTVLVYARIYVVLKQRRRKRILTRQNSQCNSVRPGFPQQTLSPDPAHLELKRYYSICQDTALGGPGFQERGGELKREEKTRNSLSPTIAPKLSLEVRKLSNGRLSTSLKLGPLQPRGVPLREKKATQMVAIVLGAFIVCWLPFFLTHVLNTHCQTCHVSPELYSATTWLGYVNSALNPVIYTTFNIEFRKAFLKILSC
# note: exactly 0.2 nM is not below, so it is not met; use met for Ki strictly under it

Study these solved cases before continuing.
[[record]]
compound = "Cn1cc(CC(=O)N[C@H]2CC[C@H](CCN3CCc4nc(OCC(C)(F)F)sc4CC3)CC2)cn1 [Example I-004]"
qualitative_label = "met"

[[record]]
compound = "Cn1ncc(CC(=O)N[C@H]2CC[C@H](CCN3CCc4ccc(CCC(F)(F)F)nc4CC3)CC2)c1F [I′-19]"
qualitative_label = "not met"

[[record]]
compound = "Cc1cnc(CC(=O)N[C@H]2CC[C@H](CCN3CCc4sc(C5CC(F)(F)C5)nc4C3)CC2)o1 [Example I-041]"
qualitative_label = "met"

[[record]]
compound = "Cn1cc2c(C(=O)N[C@H]3CC[C@H](CCN4CCc5sc([C@H]6C[C@@H](F)C6)nc5C4)CC3)cccc2n1 [Example I-035]"
qualitative_label = "met"

[[record]]
compound = "CC(Oc1nc2c(s1)CCN(CC[C@H]1CC[C@H](NC(=O)c3cccc4nn(C)cc34)CC1)CC2)C(F)F (single isomer, unassigned) [Example I-112]"
qualitative_label = "met"


Continue with the compound presented below.
Problem: Please check: Ki for CC[C@@H](C)Oc1ccc2c(n1)CCN(CC[C@H]1CC[C@H](NC(=O)Cc3cnn(C)n3)CC1)CC2 [Example I-111] , strictly under 0.2 nM or not?
Solution: met
